# IC50 listing for each entry below
molecular target: UniProt:P30551; test: biochemical; assay type: binding; conditions: rat pancreas (CCK-A), 125I-CCK; read-out: CCK RECEPTOR BINDING RESULTS IC50 125I-CCK Pancreas
Counter-ions that a name gives are not always drawn.
# output: bare number, implied unit nM

Ask: Tell me measured IC50 for CN1C(=O)C(NC(=O)Nc2cccc(C(F)(F)F)c2)N=C(N2CC3CCC(CC3)C2)c2ccccc21 (single isomer, unassigned; (+)) [Example 56, Hydrochloride] please.
Result: 62

Ask: Tell me measured IC50 for CC(C)CN1C(=O)C(NC(=O)Cc2c[nH]c3ccccc23)N=C(N2CCCCCC2)c2ccccc21 (racemic) please.
Result: 646

Ask: Tell me measured IC50 for Cc1cccc(NC(=O)NC2N=C(N3CCC(C)(C)CC3)c3ccccc3N(C)C2=O)c1 (single isomer, unassigned) [10 (enantiomer B)] please.
Result: 0.42

Ask: Tell me measured IC50 for CN1C(=O)C(NC(=O)Nc2ccc3c(c2)CCC3)N=C(N2CCC(C)(C)CC2)c2ccccc21 (single isomer, unassigned) [5 (enantiomer A)] please.
Result: 738

Ask: Tell me measured IC50 for CN1C(=O)C(NC(=O)Nc2ccccc2)N=C(N2CC3CCC(CC3)C2)c2ccccc21 (racemic) please.
Result: 10

Lab note: next compound to report on.
Ask: Tell me measured IC50 for CC(C)CN1C(=O)C(NC(=O)[C@@H]2Cc3ccccc3N2)N=C(N2CCCCCC2)c2ccccc21 (stereo partly drawn) please.
Result: 101

----------
target: CCK-B (Cavia porcellus, UniProt H0VZC5); construct: guinea pig brain (CCK-B); from tissue; host or cells: guinea pig brain; test: displacement of specific 125I-CCK from guinea pig brain (CCK-B receptor binding); details: read-out: CCK RECEPTOR BINDING RESULTS IC50 125I-CCK Brain
Sequence (H0VZC5 1-426): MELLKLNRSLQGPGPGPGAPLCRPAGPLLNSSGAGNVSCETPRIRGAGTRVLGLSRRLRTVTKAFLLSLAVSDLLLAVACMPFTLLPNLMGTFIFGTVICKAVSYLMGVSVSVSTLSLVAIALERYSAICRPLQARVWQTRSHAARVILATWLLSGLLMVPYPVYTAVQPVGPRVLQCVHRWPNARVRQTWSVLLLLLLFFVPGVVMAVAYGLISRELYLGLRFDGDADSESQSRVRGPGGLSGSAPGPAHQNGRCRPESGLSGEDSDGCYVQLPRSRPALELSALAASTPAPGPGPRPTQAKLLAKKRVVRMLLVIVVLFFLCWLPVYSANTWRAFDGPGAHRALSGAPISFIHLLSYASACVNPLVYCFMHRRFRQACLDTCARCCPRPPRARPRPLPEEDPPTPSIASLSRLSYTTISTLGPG
observed_property: log10 IC50 (log10 of the value in nM)
Give log10 of IC50, with IC50 taken in nM.

Ask: Tell me measured log10 IC50 for CN1C(=O)C(NC(=O)Nc2ccc3c(c2)CCC3)N=C(N2CCC(C)(C)CC2)c2ccccc21 (single isomer, unassigned) [5 (enantiomer A)] please.
Result: -0.31

New cases:
Ask: Tell me measured log10 IC50 for CCCN(C1=NC(NC(=O)Nc2cccc(C)c2)C(=O)N(C)c2ccccc21)C1CCCCC1 (racemic) [Example 79] please.
Result: 1.13

Ask: Tell me measured log10 IC50 for CN1C(=O)C(NC(=O)Nc2ccc3c(c2)CCC3)N=C(N2CCC(C)(C)CC2)c2ccccc21 (single isomer, unassigned) [5 (enantiomer B)] please.
Result: 1.17

Ask: Tell me measured log10 IC50 for CN1C(=O)C(NC(=O)Nc2ccc3c(c2)CCC3)N=C(N(C)C2CCCCCC2)c2ccccc21 (racemic) [Example 69] please.
Result: 0.45

Ask: Tell me measured log10 IC50 for CCCN1C(=O)C(NC(=O)Nc2cccc(C)c2)N=C(N2C[C@@H]3C[C@H]2CN3C)c2ccccc21 (stereo partly shown) [Example 32] please.
Result: 1.34

Ask: Tell me measured log10 IC50 for CCCN1C(=O)C(NC(=O)Nc2cccc(C)c2)N=C(N2CCC(C)CC2)c2ccccc21 (racemic) [Example 17] please.
Result: -0.70

Ask: Tell me measured log10 IC50 for Cc1cccc(NC(=O)NC2N=C(N3CCC(C(F)(F)F)CC3)c3ccccc3N(C)C2=O)c1 (single isomer, unassigned) [20 (enantiomer A)] please.
Result: 0.18

----------
target: CCK-A (Rattus norvegicus, UniProt P30551); assay: biochemical; format: binding; details: rat pancreas (CCK-A), 125I-CCK; read-out: CCK RECEPTOR BINDING RESULTS IC50 125I-CCK Pancreas
Sequence (P30551 whole entry): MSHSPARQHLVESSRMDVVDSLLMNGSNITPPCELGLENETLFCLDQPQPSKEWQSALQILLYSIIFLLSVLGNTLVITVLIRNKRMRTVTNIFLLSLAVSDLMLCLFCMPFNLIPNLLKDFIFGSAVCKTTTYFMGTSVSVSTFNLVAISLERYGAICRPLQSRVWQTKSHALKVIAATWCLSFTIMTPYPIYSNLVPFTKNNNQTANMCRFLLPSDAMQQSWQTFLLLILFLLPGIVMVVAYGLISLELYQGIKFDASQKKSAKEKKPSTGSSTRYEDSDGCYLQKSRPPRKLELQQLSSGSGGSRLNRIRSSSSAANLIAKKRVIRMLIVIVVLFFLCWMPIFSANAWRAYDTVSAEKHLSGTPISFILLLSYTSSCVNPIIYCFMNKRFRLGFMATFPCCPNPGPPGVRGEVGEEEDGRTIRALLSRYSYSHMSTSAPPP
Structures can show the parent of a compound that is named as a salt.
observed_property: pIC50
Remember, pIC50 is on a log scale: it is -log10 of the molar concentration.

Observe how each entry below is paired with its result.
Ask: Tell me measured pIC50 for Cc1cc(NC(=O)NC2N=C(N3CC4CCC(CC4)C3)c3ccccc3N(C)C2=O)ccc1F (racemic) please.
Result: 7.73

Ask: Tell me measured pIC50 for Cc1cccc(NC(=O)NC2N=C(N(C)C3CCCCCC3)c3ccccc3N(C)C2=O)c1 (single isomer, unassigned; (-)) [Example 67, Hydrochloride] please.
Result: 5.70

Ask: Tell me measured pIC50 for Cc1cccc(NC(=O)NC2N=C(N(C)C3CCCCC3)c3ccccc3N(C)C2=O)c1 (racemic) [Example 63] please.
Result: 6.52

Ask: Tell me measured pIC50 for Cc1cccc(NC(=O)NC2N=C(NC3CCCCC3)c3ccccc3N(C)C2=O)c1 (racemic) please.
Result: 7.83

Ask: Tell me measured pIC50 for CCN(C1=NC(NC(=O)Nc2cccc(C)c2)C(=O)N(C)c2ccccc21)C1CCCC1 (racemic) please.
Result: 6.12

Ask: Tell me measured pIC50 for Cc1cccc(NC(=O)NC2N=C(N(C)C3CCC(C)(C)CC3)c3ccccc3N(C)C2=O)c1 (racemic) please.
Result: 6.87

New cases:
Ask: Tell me measured pIC50 for Cc1cccc(NC(=O)NC2N=C(N(C)C3CCCCCC3)c3ccccc3N(C)C2=O)c1 (racemic) [Example 66] please.
Result: 7.08

Ask: Tell me measured pIC50 for Cc1cccc(NC(=O)NC2N=C(N3CCC(C)CC3)c3ccccc3N(C)C2=O)c1 (single isomer, unassigned) [8 (enantiomer A)] please.
Result: 6.01

Ask: Tell me measured pIC50 for Cc1cccc(NC(=O)NC2N=C(N3CCC(C)(C)CC3)c3ccccc3N(C)C2=O)c1 (racemic) [Example 9] please.
Result: 8.05

Ask: Tell me measured pIC50 for Cc1cccc(NC(=O)NC2N=C(N3CCC(C)CC3)c3ccccc3N(C)C2=O)c1 (racemic) [Example 7] please.
Result: 8.11

Ask: Tell me measured pIC50 for CN1C(=O)C(NC(=O)Nc2cccc(I)c2)N=C(N2CC3CCC(CC3)C2)c2ccccc21 (single isomer, unassigned; (+)) [Example 49] please.
Result: 8.02

Ask: Tell me measured pIC50 for Cc1ccc(NC(=O)NC2N=C(N3CC4CCC(CC4)C3)c3ccccc3N(C)C2=O)cc1F (racemic) please.
Result: 7.15

Ask: Tell me measured pIC50 for Cc1cccc(NC(=O)NC2N=C(N(Cc3ccccc3)C3CCCCC3)c3ccccc3N(C)C2=O)c1 (racemic) please.
Result: 5.95

Ask: Tell me measured pIC50 for COC1CCN(C2=NC(NC(=O)Nc3cccc(C)c3)C(=O)N(C)c3ccccc32)CC1 (racemic) [Example 11] please.
Result: 7.60

Ask: Tell me measured pIC50 for Cc1cccc(NC(=O)NC2N=C(N3CCC(C)(C)CC3)c3ccccc3N(CC(F)(F)F)C2=O)c1 (single isomer, unassigned) [28 (enantiomer A)] please.
Result: 6.62

Ask: Tell me measured pIC50 for C[C@@H]1CCC[C@H](C)N1C1=NC(NC(=O)Nc2ccc3c(c2)CCC3)C(=O)N(C)c2ccccc21 (some centres unmarked) [Example 13] please.
Result: 6.30

Ask: Tell me measured pIC50 for C[C@@H]1CCC[C@H](C)N1C1=NC(NC(=O)Nc2ccc3c(c2)CCC3)C(=O)N(C)c2ccccc21 (single isomer, unassigned) [15 (enantiomer B)] please.
Result: 6.79

Ask: Tell me measured pIC50 for Cc1cccc(NC(=O)NC2N=C(N3[C@H](C)C[C@H](C)C[C@@H]3C)c3ccccc3N(C)C2=O)c1 (single isomer, unassigned) [24 (enantiomer B)] please.
Result: 7.34

Ask: Tell me measured pIC50 for CCCN(C1=NC(NC(=O)Nc2cccc(C)c2)C(=O)N(C)c2ccccc21)C1CCCCC1 (racemic) please.
Result: 5.77

Ask: Tell me measured pIC50 for C[C@@H]1CCC[C@H](C)N1C1=NC(NC(=O)Nc2ccc3c(c2)CCC3)C(=O)N(C)c2ccccc21 (single isomer, unassigned) [15 (enantiomer A)] please.
Result: 5.72

Ask: Tell me measured pIC50 for CN1C(=O)C(NC(=O)Nc2ccc3c(c2)CCC3)N=C(N(C)C2CCCCCC2)c2ccccc21 (racemic) [Example 69] please.
Result: 6.33

Ask: Tell me measured pIC50 for Cc1cccc(NC(=O)NC2N=C(N3[C@H](C)C[C@H](C)C[C@@H]3C)c3ccccc3N(C)C2=O)c1 (single isomer, unassigned) [24 (enantiomer A)] please.
Result: 5.65

Ask: Tell me measured pIC50 for CN1C(=O)C(NC(=O)c2cc3ccccc3[nH]2)N=C(N2CC3CCC(CC3)C2)c2ccccc21 (single isomer, unassigned; (+)) [Example 89, dihydrochloride] please.
Result: 9.59

Ask: Tell me measured pIC50 for CN1C(=O)C(NC(=O)Nc2ccc3c(c2)CCC3)N=C(N2CCC(C)(C)CC2)c2ccccc21 (racemic) [Example 4] please.
Result: 7.46
